Target: T1, Macaca fascicularis PDGFRb.mmh (Macaca fascicularis)
T1 construct: Soluble monomeric construct; also called mfPDGFRb.mmh
T1 chain: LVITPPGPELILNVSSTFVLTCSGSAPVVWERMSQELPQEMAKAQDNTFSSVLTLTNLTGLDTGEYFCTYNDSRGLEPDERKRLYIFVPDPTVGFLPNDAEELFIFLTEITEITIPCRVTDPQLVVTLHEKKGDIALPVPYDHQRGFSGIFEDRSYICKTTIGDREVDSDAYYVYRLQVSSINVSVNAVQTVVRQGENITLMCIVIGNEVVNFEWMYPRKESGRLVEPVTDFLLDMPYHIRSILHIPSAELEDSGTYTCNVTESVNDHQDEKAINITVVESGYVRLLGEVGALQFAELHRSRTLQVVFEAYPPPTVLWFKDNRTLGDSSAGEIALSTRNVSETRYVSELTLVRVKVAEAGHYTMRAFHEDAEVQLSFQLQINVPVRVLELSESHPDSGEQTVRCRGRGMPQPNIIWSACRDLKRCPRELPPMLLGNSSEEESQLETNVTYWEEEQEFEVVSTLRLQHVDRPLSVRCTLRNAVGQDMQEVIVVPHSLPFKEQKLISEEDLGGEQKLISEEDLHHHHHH
Assay: SPR, mAb captured, 37 C
measurement.type: kon
Please answer in the form of a number followed by its unit of measurement.

[[record]]
binder = "H4H3106S (antibody, human IgG4, V domains shown, human IgG4 Fc (H4H prefix)) VH: QVQLVESGGGLVQPGGSLRLSCAASGFTFSSYWMSWVRQVPGKGLEWVANMNQDGTEKYYVDSVKGRLTISRENVKNSLYLQMNGLRAEDTAVYYCARDLVPPRQGDYYYYFGMDVWGHGTMVTVSS VL: AIQMTQSPSTLSASVGDIVTITCRASQSISDWLAWYQQKPGKAPKLLIFKASSLESGVPSRFSGSGSGTDFTLTISSLQPDDFATYYCQQYNSYSRTFGQGTKVDIK"
value = "372000 M⁻¹ s⁻¹"


Entry H4H3095S (antibody, human IgG4, V domains shown, human IgG4 Fc (H4H prefix)) VH: EVQLVESGGGLVQPGGSLRLSCGASGFTFSSYWMTWVRQAPGKGLEWVGNINQDGSEKYSVDSVKGRFTISRDNAKNSLYLQMNRVRAEDTAVYYCSRDLVPPRQGDNYYYFGMDVWGLGTTVTVSS VL: DIQMTQSPSTLSASVGDRVIITCRASQNINNWLAWYQQQPGKAPKLLIYEASSLESGVPSRFSGSGSGTEFTLTIGSLQPDDFATYYCQHYNSYSRTFGQGTKVDIK : reported kon = ? 239000 M⁻¹ s⁻¹

Please give the result for H4H3374N (antibody, human IgG4, V domains shown, human IgG4 Fc (H4H prefix)) VH: QLQLQESGPGLVKPSETLSLTCTVSGGSITSSSYYWGWIRQPPGKGLEWIGSIYYRGSTNYNPSLKSRVTISVDSSKNQFYLKVSSVTAVDTAVYYCARQNGAARPSWFDPWGQGTLVTVSS VL: EIVLTQSPDTISLSPGERATLSCRASQSISSIYLAWYQQKPGQAPRLLIYGASSRVTGIPDRFSVSGSGTDFTLTISRLEPEDFAVYYCQHYGISPFTFGPGTKVDIR too. 670000 M⁻¹ s⁻¹
